# subject_of_test: rat mGluR5 receptor (Rattus norvegicus, UniProt P31424)
# Construct: expressed in transfected cells; host or cells: HEK-293
# Sequence (P31424 21-1203): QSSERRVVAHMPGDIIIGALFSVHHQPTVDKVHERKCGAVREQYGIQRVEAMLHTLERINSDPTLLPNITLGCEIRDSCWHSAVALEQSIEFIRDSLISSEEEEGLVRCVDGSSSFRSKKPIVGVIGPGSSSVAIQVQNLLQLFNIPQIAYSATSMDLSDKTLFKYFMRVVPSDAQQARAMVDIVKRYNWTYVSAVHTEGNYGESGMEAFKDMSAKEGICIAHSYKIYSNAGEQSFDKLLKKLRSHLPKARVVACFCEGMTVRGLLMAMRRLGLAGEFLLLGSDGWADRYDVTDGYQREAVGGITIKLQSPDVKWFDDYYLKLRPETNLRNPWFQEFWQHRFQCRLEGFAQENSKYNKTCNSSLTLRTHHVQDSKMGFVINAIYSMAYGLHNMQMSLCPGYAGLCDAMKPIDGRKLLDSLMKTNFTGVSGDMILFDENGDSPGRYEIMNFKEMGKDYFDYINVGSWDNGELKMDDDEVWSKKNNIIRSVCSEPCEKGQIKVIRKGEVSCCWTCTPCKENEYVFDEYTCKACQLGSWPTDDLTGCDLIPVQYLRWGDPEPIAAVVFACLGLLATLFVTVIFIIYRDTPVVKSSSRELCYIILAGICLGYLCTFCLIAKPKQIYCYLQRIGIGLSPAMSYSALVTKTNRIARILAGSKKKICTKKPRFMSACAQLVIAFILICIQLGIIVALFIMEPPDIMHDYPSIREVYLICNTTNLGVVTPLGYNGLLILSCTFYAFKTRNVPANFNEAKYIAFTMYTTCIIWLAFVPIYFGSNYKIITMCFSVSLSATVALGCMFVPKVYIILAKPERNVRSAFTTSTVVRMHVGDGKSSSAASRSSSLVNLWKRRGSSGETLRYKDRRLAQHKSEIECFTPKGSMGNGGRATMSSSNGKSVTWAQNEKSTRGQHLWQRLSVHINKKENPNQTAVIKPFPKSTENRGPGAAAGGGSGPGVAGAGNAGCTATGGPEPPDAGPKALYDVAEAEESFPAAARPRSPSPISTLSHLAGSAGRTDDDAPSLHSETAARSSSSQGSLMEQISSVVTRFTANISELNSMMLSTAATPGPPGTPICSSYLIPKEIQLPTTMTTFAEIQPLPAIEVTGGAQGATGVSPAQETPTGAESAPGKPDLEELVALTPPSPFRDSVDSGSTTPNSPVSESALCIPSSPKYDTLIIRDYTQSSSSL
# measurement_notes: [3H]-MPEP displacement binding assay, HEK-293 cell membranes expressing rat mGluR5
# test_conditions: read-out: Median Ki
pKi: −log10 of the molar value.
endpoint: pKi

compound="Cc1cccc(C#Cc2cc(C(=O)N3CCN(c4ccccn4)CC3)ccc2C)c1 [Compound 39]" subject_of_test="rat mGluR5 receptor (Rattus norvegicus, UniProt P31424)" observed_value=7.24
compound="COc1ccc(C(=O)N2CCN(c3cnccn3)CC2)cc1C#CC1=CCCCC1 [Compound 50]" subject_of_test="rat mGluR5 receptor (Rattus norvegicus, UniProt P31424)" observed_value=6.77
compound="Cc1ccc(C(=O)N2CCN(c3ccccn3)CC2)cc1C#Cc1cccc(N)c1 [Compound 36]" subject_of_test="rat mGluR5 receptor (Rattus norvegicus, UniProt P31424)" observed_value=6.32
compound="COc1ccc(C(=O)N2CCN(c3ccccn3)CC2)cc1C#Cc1cccc(F)c1 [Compound 63]" subject_of_test="rat mGluR5 receptor (Rattus norvegicus, UniProt P31424)" observed_value=8.13
compound="Cc1ccc(C(=O)N2CCN(c3ccccn3)CC2)cc1C#CC1=CCCCC1 [Compound 24]" subject_of_test="rat mGluR5 receptor (Rattus norvegicus, UniProt P31424)" observed_value=5.89
compound="COc1ccc(C(=O)N2CCN(c3ccccn3)CC2)cc1C#Cc1cc(F)cc(F)c1 [Compound 21]" subject_of_test="rat mGluR5 receptor (Rattus norvegicus, UniProt P31424)" observed_value=5.71
compound="COc1ccc(C(=O)N2CCN(c3ccccn3)CC2)cc1C#CCc1ccccc1 [Compound 16]" subject_of_test="rat mGluR5 receptor (Rattus norvegicus, UniProt P31424)" observed_value=7.37
compound="COc1ccc(C(=O)N2CCN(c3ccccn3)CC2)cc1C#Cc1ccncc1 [Compound 45]" subject_of_test="rat mGluR5 receptor (Rattus norvegicus, UniProt P31424)" observed_value=6.00
compound="Cc1cc(C#Cc2cc(C(=O)N3CCN(c4ccccn4)CC3)ccc2C)ccc1F [Compound 31]" subject_of_test="rat mGluR5 receptor (Rattus norvegicus, UniProt P31424)" observed_value=6.33
compound="Cc1ccc(C(=O)N2CCN(c3cnccn3)CC2)cc1C#Cc1cccc(F)c1 [Compound 62]" subject_of_test="rat mGluR5 receptor (Rattus norvegicus, UniProt P31424)" observed_value=6.92
compound="Cc1ccc(C(=O)N2CCN(c3ccccn3)CC2)cc1C#Cc1cccc(O)c1 [Compound 46]" subject_of_test="rat mGluR5 receptor (Rattus norvegicus, UniProt P31424)" observed_value=5.88
compound="COc1cccc(C#Cc2cc(C(=O)N3CCN(c4cnccn4)CC3)ccc2OC)c1 [Compound 52]" subject_of_test="rat mGluR5 receptor (Rattus norvegicus, UniProt P31424)" observed_value=7.22
compound="Cc1ccc(C(=O)N2CCN(c3cnccn3)CC2)cc1C#Cc1ccccn1 [Compound 68]" subject_of_test="rat mGluR5 receptor (Rattus norvegicus, UniProt P31424)" observed_value=8.05
compound="Cc1ccc(C(=O)N2CCN(c3ccccn3)CC2)cc1C#Cc1cccc(Cl)c1 [Compound 28]" subject_of_test="rat mGluR5 receptor (Rattus norvegicus, UniProt P31424)" observed_value=7.12
compound="Cc1cccc(C#Cc2cc(C(=O)N3CCN(c4cnccn4)CC3)ccc2C)c1 [Compound 59]" subject_of_test="rat mGluR5 receptor (Rattus norvegicus, UniProt P31424)" observed_value=7.20
compound="COc1cccc(C#Cc2cc(C(=O)N3CCN(c4cnccn4)CC3)ccc2C)c1 [Compound 58]" subject_of_test="rat mGluR5 receptor (Rattus norvegicus, UniProt P31424)" observed_value=6.49
compound="COc1ccc(C(=O)N2CCN(c3ccccn3)CC2)cc1C#Cc1cccc(O)c1 [Compound 33]" subject_of_test="rat mGluR5 receptor (Rattus norvegicus, UniProt P31424)" observed_value=6.27
compound="Cc1ccc(C(=O)N2CCN(c3cnccn3)CC2)cc1C#Cc1cccc(C(F)(F)F)c1 [Compound 60]" subject_of_test="rat mGluR5 receptor (Rattus norvegicus, UniProt P31424)" observed_value=6.13

====

Collected inhibition at 10 µM values appear next to each entry.
# subject_of_test: rat mGluR5 receptor (Rattus norvegicus)
# Construct: expressed in transfected cells; host or cells: HEK-293
# measurement_notes: [3H]-MPEP displacement binding assay, HEK-293 cell membranes expressing rat mGluR5
# test_conditions: single point, @ 10 μM compound; Table 3A; read-out: PCT INHIB (%) @ 10 μM
endpoint: inhibition at 10 µM (%)

molecule_smiles=COc1ccc(C(=O)N2CCN(c3ccccn3)CC2)cc1OCc1cccc(F)c1 observed_value=11
molecule_smiles=COc1ccc(C(=O)N2CCN(c3ccccn3)CC2)cc1OCc1cccc(C#N)c1 observed_value=0
molecule_smiles=O=C(c1cccc(OCc2cccc(Br)c2)c1)N1CCN(c2ccccn2)CC1 observed_value=23
molecule_smiles=COc1cccc(COc2cccc(C(=O)N3CCN(c4ccccn4)CC3)c2)c1 observed_value=0
molecule_smiles=O=C(c1cccc(OCc2cccc(F)c2)c1)N1CCN(c2ccccn2)CC1 observed_value=18
molecule_smiles=COc1ccc(C(=O)N2CCN(c3ccccn3)CC2)cc1OCc1cccc(Cl)c1 observed_value=11
molecule_smiles=COc1ccc(C(=O)N2CCN(c3ccccn3)CC2)cc1OCc1cccc(Br)c1 observed_value=26
molecule_smiles=O=C(c1cccc(OCc2ccccc2)c1)N1CCN(c2ccccn2)CC1 observed_value=0
molecule_smiles=COc1ccc(C(=O)N2CCN(c3ccccn3)CC2)cc1OCc1cccc(C)c1 observed_value=0

====

inhibition at 10 µM reference
# subject_of_test: rat mGluR5 receptor (Rattus norvegicus, UniProt P31424)
# Construct: expressed in transfected cells; host or cells: HEK-293
# measurement_notes: [3H]-MPEP displacement binding assay, HEK-293 cell membranes expressing rat mGluR5
# test_conditions: single point, @ 10 μM compound; Table 3A; read-out: PCT INHIB (%) @ 10 μM
endpoint: inhibition at 10 µM

molecule_smiles=N#Cc1cccc(COc2cccc(C(=O)N3CCN(c4ccccn4)CC3)c2)c1 observed_value=0%
molecule_smiles=Cc1cccc(COc2cccc(C(=O)N3CCN(c4ccccn4)CC3)c2)c1 observed_value=0%
molecule_smiles=COc1ccc(C(=O)N2CCN(c3ccccn3)CC2)cc1OCc1ccccc1 observed_value=0%
molecule_smiles=COc1cccc(COc2cc(C(=O)N3CCN(c4ccccn4)CC3)ccc2OC)c1 observed_value=0%
molecule_smiles=O=C(c1cccc(OCc2cccc(Cl)c2)c1)N1CCN(c2ccccn2)CC1 observed_value=36%

====

# subject_of_test: rat mGluR5 receptor (Rattus norvegicus, UniProt P31424)
# Construct: expressed in transfected cells; host or cells: HEK-293
# measurement_notes: [3H]-MPEP displacement binding assay, HEK-293 cell membranes expressing rat mGluR5
# test_conditions: [3H]-MPEP displacement, rat mGluR5; read-out: Median Ki
pKi: −log10 of the molar value.
Recorded pKi, one value per entry.
endpoint: pKi

molecule_smiles=COc1ccc(C(=O)N2CCN(c3nc(C)cc(C)n3)CC2)cc1C#Cc1ccccn1 subject_of_test="rat mGluR5 receptor (Rattus norvegicus, UniProt P31424)" endpoint=pKi observed_value=7.35
molecule_smiles=O=C(c1ccc(F)c(C#Cc2ccccn2)c1)N1CCN(c2ncccc2Cl)CC1 subject_of_test="rat mGluR5 receptor (Rattus norvegicus, UniProt P31424)" endpoint=pKi observed_value=6.57
molecule_smiles=COc1ccc(C(=O)N2CCN(c3nc(Cl)ncc3F)CC2)cc1C#Cc1ccccn1 subject_of_test="rat mGluR5 receptor (Rattus norvegicus, UniProt P31424)" endpoint=pKi observed_value=6.99
molecule_smiles=COc1ccc(C(=O)N2C[C@H]3C[C@H]2CN3c2cccc(F)c2)cc1C#Cc1ccccn1 subject_of_test="rat mGluR5 receptor (Rattus norvegicus, UniProt P31424)" endpoint=pKi observed_value=7.72
molecule_smiles=COc1ccc(C(=O)N2CCN(c3cncc(C)n3)CC2)cc1C#Cc1ccccn1 subject_of_test="rat mGluR5 receptor (Rattus norvegicus, UniProt P31424)" endpoint=pKi observed_value=7.54
molecule_smiles=COc1ccc(C(=O)N2CCN(c3ncccc3C)CC2)cc1C#Cc1ccccn1 subject_of_test="rat mGluR5 receptor (Rattus norvegicus, UniProt P31424)" endpoint=pKi observed_value=7.68
molecule_smiles=COc1ccc(C(=O)N2CCN(c3ccccc3Cl)C(=O)C2)cc1C#Cc1ccccn1 subject_of_test="rat mGluR5 receptor (Rattus norvegicus, UniProt P31424)" endpoint=pKi observed_value=7.02
molecule_smiles=COc1ccc(C(=O)N2CCN(Cc3c(Cl)cccc3Cl)CC2)cc1C#Cc1ccccn1 subject_of_test="rat mGluR5 receptor (Rattus norvegicus, UniProt P31424)" endpoint=pKi observed_value=6.57

====

# subject_of_test: rat mGluR5 receptor (Rattus norvegicus, UniProt P31424)
# Construct: expressed in transfected cells; host or cells: HEK-293
# measurement_notes: [3H]-MPEP displacement binding assay, HEK-293 cell membranes expressing rat mGluR5
# test_conditions: 1 h, single point, @ 10 μm compound; Table 1A; read-out: PCT INHIB (%) @ 10 μm
endpoint: inhibition at 10 µM

molecule_smiles=COc1cc(C#Cc2cc(C(=O)N3CCN(c4ccccn4)CC3)ccc2C)cc(OC)c1 observed_value=0%
molecule_smiles=COc1ccc(C(=O)N2CCN(c3ccccn3)CC2)cc1C#Cc1ccncc1 observed_value=68%
molecule_smiles=COc1ccc(C(=O)N2CCN(c3ccccn3)CC2)cc1C#Cc1cccc(N)c1 observed_value=62%
molecule_smiles=COc1ccc(C(=O)N2CCN(c3cnccn3)CC2)cc1C#Cc1cccc(C)c1 observed_value=95%
molecule_smiles=COc1ccc(C(=O)N2CCN(c3ccccn3)CC2)cc1C#Cc1cccc(C)c1 observed_value=99%
molecule_smiles=Cc1ccccc1C#Cc1cccc(C(=O)N2CCN(c3ccccn3)CC2)c1 observed_value=0%
molecule_smiles=Cc1ccc(C(=O)N2CCN(c3cnccn3)CC2)cc1C#CC1=CCCCC1 observed_value=70%
molecule_smiles=Cc1ccc(C(=O)N2CCN(c3ccccn3)CC2)cc1C#CC1=CCCCC1 observed_value=71%
molecule_smiles=COc1cccc(C#Cc2cc(C(=O)N3CCN(c4cnccn4)CC3)ccc2C)c1 observed_value=93%
molecule_smiles=COc1cccc(C#Cc2cc(C(=O)N3CCN(c4ccccn4)CC3)ccc2C)c1 observed_value=86%
molecule_smiles=COc1ccc(C(=O)N2CCN(c3ccccn3)CC2)cc1C#Cc1cc(C)c(C)cc1C observed_value=0%
molecule_smiles=Cc1cc(C#Cc2cc(C(=O)N3CCN(c4ccccn4)CC3)ccc2C)ccc1F observed_value=68%
molecule_smiles=COc1ccc(C(=O)N2CCN(c3ccccn3)CC2)cc1C#Cc1cccc(O)c1 observed_value=82%
molecule_smiles=COc1cccc(C#Cc2cc(C(=O)N3CCN(c4ccccn4)CC3)ccc2OC)c1 observed_value=91%
molecule_smiles=COc1ccc(C(=O)N2CCN(c3ccccn3)CC2)cc1C#CC1=CCCCC1 observed_value=76%
molecule_smiles=COc1ccc(C(=O)N2CCN(c3ccccn3)CC2)cc1C#Cc1cccnc1 observed_value=67%
molecule_smiles=Cc1ccc(C(=O)N2CCN(c3ccccn3)CC2)cc1C#Cc1cccc(Cl)c1 observed_value=79%
molecule_smiles=O=C(c1cccc(C#CC2=CCCCC2)c1)N1CCN(c2ccccn2)CC1 observed_value=78%

The origin of these recorded values is patent US20090325964A1.
